Catalogue of CC50 at 24 h values
assay: Cytotoxicity against human SW982 cells after 24 hrs by MTT assay; type: cell-based; conditions: read-out: LD50
Please state the figure in µM; there is no need to write the unit.

Sample answers from the record:
COC(=O)[C@]1(C)[C@@H]2CC[C@]3(C)[C@H](CC=C4[C@@H]5[C@@H](C)[C@H](C)CC[C@]5(C)CC[C@]43C)[C@@]2(C)CC[C@H]1OC(=O)C(C)c1ccc(CC(C)C)cc1 (mixture of isomers): 62.6
C[C@H]1[C@H](C)CC[C@]2(C)CC[C@]3(C)C(=CC(=O)[C@@H]4[C@@]5(C)CC[C@@H](O)[C@](C)(C(=O)O)[C@@H]5CC[C@]43C)[C@H]12: 82
C[C@H]1[C@H](C)CC[C@]2(C)CC[C@]3(C)C(=CC[C@@H]4[C@@]5(C)CC[C@@H](O)[C@](C)(C(=O)O)[C@@H]5CC[C@]43C)[C@H]12: 70.2
CC(C)Cc1ccc(C(C)C(=O)O)cc1 (stereo not given): 93

Next compound, CC50 at 24 h to be filled in.
Reported CC50 at 24 h ( COC(=O)[C@]1(C)[C@@H]2CC[C@]3(C)[C@H](C(=O)C=C4[C@@H]5[C@@H](C)[C@H](C)CC[C@]5(C)CC[C@]43C)[C@@]2(C)CC[C@H]1OC(=O)C(C)c1ccc(CC(C)C)cc1 (mixture of isomers) ) = 40.6
